conditions: 313.15 K; 100 kPa; Liquid; Vibrating tube method
measurement.name: mass density (kg/m3)
API: value field is a number in kg/m3; no unit string.

Guide cases for mass density, answers given:
[[record]]
compound = "CCCC(C)O (centres undefined)"
unit_label = "kg/m3"
measured_value = 792.7

[[record]]
compound = "Nc1ccccc1"
unit_label = "kg/m3"
measured_value = 1004.7

[[record]]
compound = "CC(C)O"
unit_label = "kg/m3"
measured_value = 768


For the next question, use this compound.
mass density measured on CCC(C)O (centres undefined) = 789.8

====

Measured mass density of individual entries
details: 308.15 K; 100 kPa; Liquid; Vibrating tube method
API: value field is a number in kg/m3; no unit string.

[[record]]
compound = "CCCC(C)O (centres undefined)"
measured_value = 797

[[record]]
compound = "CC(C)O"
measured_value = 772.4

[[record]]
compound = "Nc1ccccc1"
measured_value = 1009


For the next question, use this compound.
mass density measured on CCC(C)O (centres undefined) = 794.1

====

conditions: 308.15 K; 100 kPa; Liquid; Concentric cylinders viscometry
Measured viscosity of individual entries
API: value field is a number in mPa·s; no unit string.

[[record]]
molecule = "CCC(C)O (centres undefined) [butan-2-ol]"
unit_label = "mPa·s"
measured_value = 2.13

[[record]]
molecule = "Nc1ccccc1 [aniline]"
unit_label = "mPa·s"
measured_value = 2.75

[[record]]
molecule = "CCCC(C)O (centres undefined) [pentan-2-ol]"
unit_label = "mPa·s"
measured_value = 2.48


For the next question, use this molecule.
viscosity measured on CC(C)O [propan-2-ol] = 1.56

====

Measured viscosity of individual entries
details: 293.15 K; 100 kPa; Liquid; Concentric cylinders viscometry
API: value field is a number in mPa·s; no unit string.

viscosity measured on CCC(C)O (centres undefined) = 3.67

viscosity measured on CCCC(C)O (centres undefined) = 3.97

viscosity measured on CC(C)O = 2.42

viscosity measured on Nc1ccccc1 = 4.37

====

conditions: 303.15 K; 100 kPa; Liquid; Vibrating tube method
Measured mass density of individual entries
API: value field is a number in kg/m3; no unit string.

Guide cases for mass density, answers given:
[[record]]
compound = "CCCC(C)O (centres undefined) [pentan-2-ol]"
unit_label = "kg/m3"
measured_value = 801.2

[[record]]
compound = "Nc1ccccc1 [aniline]"
unit_label = "kg/m3"
measured_value = 1013.2

[[record]]
compound = "CC(C)O [propan-2-ol]"
unit_label = "kg/m3"
measured_value = 776.8


For the next question, use this compound.
mass density measured on CCC(C)O (centres undefined) [butan-2-ol] = 798.4

====

Measured mass density of individual entries
conditions: 293.15 K; 100 kPa; Liquid; Vibrating tube method
API: value field is a number in kg/m3; no unit string.

Guide cases for mass density, answers given:
[[record]]
molecule = "CC(C)O [propan-2-ol]"
measurement_name = "mass density"
measured_value = 785.4

[[record]]
molecule = "CCC(C)O (centres undefined) [butan-2-ol]"
measurement_name = "mass density"
measured_value = 806.7

[[record]]
molecule = "CCCC(C)O (centres undefined) [pentan-2-ol]"
measurement_name = "mass density"
measured_value = 809.3


mass density measured on Nc1ccccc1 [aniline] = 1021.7
